Value source: paper PMC4811591

# measurementTarget: SIRT5 wild type (Homo sapiens)
# Construct: SIRT1 (193–747) and SIRT5 (51–301) were cloned into the pLIC-His expression vector; His tag (pLIC-His vector); made in house; host or cells: E. coli BL21(DE3) Star
# Sequence (Q9NXA8 51-301): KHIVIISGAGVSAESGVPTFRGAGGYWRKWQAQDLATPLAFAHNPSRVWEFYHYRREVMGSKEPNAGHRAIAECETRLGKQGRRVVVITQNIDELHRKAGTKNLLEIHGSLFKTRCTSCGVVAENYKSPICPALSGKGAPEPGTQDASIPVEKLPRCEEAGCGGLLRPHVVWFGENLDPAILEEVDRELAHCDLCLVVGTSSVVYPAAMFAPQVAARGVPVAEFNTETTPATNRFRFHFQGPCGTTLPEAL
# measurementNotes: SIRT5 wild type desuccinylation reaction, trypsin coupled fluorescence assay with Ac-SucLys-AMC
# Type: biochemical
# conditionsUsed: SIRT5 desuccinylation; in the presence of 5 mM NAD^+
pIC50: −log10 of the molar value.
quantity: pIC50

NC(=O)c1ccncc1 [isonicotinamide]    1.77

---

# measurementTarget: SIRT5 Y102A/R105I (Homo sapiens, UniProt Q9NXA8, R105I/Y102A)
# Construct: SIRT1 (193–747) and SIRT5 (51–301) were cloned into the pLIC-His expression vector; His tag (pLIC-His vector)
# measurementNotes: SIRT5 Y102A/R105I deacetylation reaction, trypsin coupled assay with Fluor-de-lys
pIC50: −log10 of the molar value.
quantity: pIC50

NC(=O)C1CCCc2c1[nH]c1ccc(Cl)cc21 (stereo not shown)    4.66

---

# measurementTarget: SIRT1 (Homo sapiens)
# Construct: SIRT1 (193–747) and SIRT5 (51–301) were cloned into the pLIC-His expression vector; His tag (pLIC-His vector); made in house; host or cells: E. coli BL21(DE3) Star
# Sequence (Q96EB6 193-747): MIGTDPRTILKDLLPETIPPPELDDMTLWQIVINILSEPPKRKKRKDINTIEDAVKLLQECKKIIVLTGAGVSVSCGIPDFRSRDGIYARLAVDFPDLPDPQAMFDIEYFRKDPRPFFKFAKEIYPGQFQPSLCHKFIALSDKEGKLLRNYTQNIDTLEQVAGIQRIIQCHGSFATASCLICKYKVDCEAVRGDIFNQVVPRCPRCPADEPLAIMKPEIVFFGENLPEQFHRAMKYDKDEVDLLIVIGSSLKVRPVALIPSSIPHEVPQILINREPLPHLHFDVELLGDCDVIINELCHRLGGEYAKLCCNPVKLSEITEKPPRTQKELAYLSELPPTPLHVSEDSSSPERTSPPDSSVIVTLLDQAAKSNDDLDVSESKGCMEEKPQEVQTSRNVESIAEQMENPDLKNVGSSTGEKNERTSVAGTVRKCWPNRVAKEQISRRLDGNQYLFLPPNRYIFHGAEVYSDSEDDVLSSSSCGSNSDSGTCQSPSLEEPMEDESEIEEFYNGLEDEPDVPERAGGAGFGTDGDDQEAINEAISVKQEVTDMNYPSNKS
# measurementNotes: SIRT1 deacetylation reaction, trypsin coupled assay with Fluor-de-lys
# Type: biochemical
# conditionsUsed: SIRT1 deacetylation; in the presence of 50 μM NAD^+
pIC50: −log10 of the molar value.
quantity: pIC50

NC(=O)c1ccncc1 [isonicotinamide]    2.15
